Every entry's value here was drawn from patent US6395896B2.

Test: Colorant stabilization effect (photostabilizer, sunlight exposure)
Set-up: key: A: No change; B: No almost change; C: Yes change
Settings: Red No. 106 0.0001 wt %; photostabilizer 0.05 wt %

Molecule: COc1cc(O)c(C(=O)c2ccccc2)cc1S(=O)(=O)[O-].[Na+] [reference compound]
Sunlight exposure (80 MJ) Appearance: B

Molecule: Oc1nncc(N2CCOCC2)c1N1CCOCC1 [4,5-Dimorpholino-3-hydroxypyridazine]
Sunlight exposure (80 MJ) Appearance: A

Molecule: CCCCCCCCOC(=O)C=Cc1ccc(OC)cc1 [Octyl p-methoxycinnamate, reference compound]
Sunlight exposure (80 MJ) Appearance: C

Molecule: COc1ccc(C(=O)CC(=O)c2ccc(C(C)(C)C)cc2)cc1 [reference compound]
Sunlight exposure (80 MJ) Appearance: B

Molecule: COc1ccc(C(=O)c2ccccc2)c(O)c1 [2-Hydroxy-4-methoxybenzophenone, reference compound]
Sunlight exposure (80 MJ) Appearance: B
